Tested on: MCF7
assay_name: Antiproliferative activity against human MCF7 cells assessed as inhibition of cell growth incubated for 72 hrs by MTT assay
Assay type: functional, cell-based
study_conditions: MCF7, 72 h
pIC50: −log10 of the molar value.
measured_property: pIC50

compound: C[C@]12CC[C@H]3[C@@H](CCC4Cc5c(cnnc5P(=O)(Nc5ccccc5)Nc5ccccc5)C[C@@]43C)[C@@H]1CC[C@@H]2O (stereo partly drawn)
measured_property: pIC50
numeric_result: 5.03
--
compound: CC(=O)O[C@H]1CC[C@@]2(C)C(=CC[C@@H]3[C@@H]2CC[C@]2(C)c4c(cnnc4P(=O)(c4ccccc4)c4ccccc4)C[C@@H]32)C1
measured_property: pIC50
numeric_result: 4.85
--
compound: C[C@]12CC[C@H](O)CC1=CC[C@@H]1[C@@H]2CC[C@]2(C)c3c(cnnc3P(=O)(Nc3ccccc3)Nc3ccccc3)C[C@@H]12
measured_property: pIC50
numeric_result: 4.73
